# Test system: Rattus norvegicus
# Assay name: Secretion of Bile acids in Bile Fistula rats after the iv administration of compound, expressed as the maximum secretion rate
# Assay type: ADME, organism-based
# Condition context: in vivo
Recorded endpoint: Smax (µM/min/g)
Field: numeric (µM/min/g). Do not append units.

Incoming: Which Smax is listed for `C[C@H](CCC(=O)O)[C@H]1CC[C@H]2[C@@H]3[C@@H](O)C[C@@H]4C[C@H](O)CC[C@]4(C)[C@H]3CC[C@]12C` ?
Outgoing: 0.0042

* * *

# Tested on: Rattus norvegicus
# Assay name: Maximum biliary secretion rate of bile acids after iv coinfusion in Bile fistula rats.
# Format: ADME, organism-based
# Condition context: in vivo
Lab note: cut-off is 3 µM/min/kg. Strictly less in Smax is Fulfilled. Exactly 3 µM/min/kg or more is Not fulfilled.

>>> class("CC(CCC(=O)N1CCC[C@@H]1C(=O)O)C1CC[C@H]2[C@@H]3[C@H](O)[C@H](O)C4C[C@H](O)CC[C@]4(C)[C@H]3CC[C@]12C (some centres not stated)")
"Not fulfilled"
>>> class("CC(CCC(=O)N1CCC[C@H]1C(=O)O)C1CC[C@H]2[C@@H]3[C@@H](O)CC4C[C@H](O)CC[C@]4(C)[C@H]3CC[C@]12C (some centres not stated)")
"Fulfilled"
>>> class("CC(CCC(=O)N1C[C@@H](O)C[C@@H]1C(=O)O)C1CC[C@H]2[C@@H]3[C@@H](O)CC4C[C@H](O)CC[C@]4(C)[C@H]3CC[C@]12C (some centres not stated)")
"Not fulfilled"
>>> class("CC(CCC(=O)N1CCC[C@@H]1C(=O)O)C1CC[C@H]2[C@@H]3[C@@H](O)CC4C[C@H](O)CC[C@]4(C)[C@H]3CC[C@]12C (some centres not stated)")
"Not fulfilled"
>>> class("CC(CCC(=O)NCC(=O)O)C1CC[C@H]2[C@@H]3[C@H](O)CC4C[C@H](O)CCC4(C)[C@H]3CCC12C (some centres not stated)")
"Not fulfilled"

Incoming: Hello, is Smax of the following compound strictly smaller than 3 µM/min/kg? CO[C@H]1C[C@H](C(=O)O)N(C(=O)CCC(C)C2CC[C@H]3[C@@H]4[C@@H](O)CC5C[C@H](O)CC[C@]5(C)[C@H]4CC[C@]23C)C1 (some centres not stated)
Outgoing: Not fulfilled

* * *

# Assay name: Partition coefficient (logP)
# Format: physicochemical
# Condition context: octanol/water
Recorded endpoint: logP
Please reply with the number alone, leaving off any unit.

Consider the reported logP for these compounds:
>>> test_value("CC(CCC(=O)N1CCC[C@@H]1C(=O)O)C1CC[C@H]2[C@@H]3[C@H](O)[C@H](O)C4C[C@H](O)CC[C@]4(C)[C@H]3CC[C@]12C (stereo partly drawn)")
3.71
>>> test_value("CC(CCC(=O)N1CCC[C@@H]1C(=O)O)C1CC[C@H]2[C@@H]3C[C@H](O)C4C[C@H](O)CC[C@]4(C)[C@H]3CC[C@]12C (stereo partly drawn)")
4.41
>>> test_value("CO[C@H]1C[C@H](C(=O)O)N(C(=O)CCC(C)C2CC[C@H]3[C@@H]4[C@@H](O)CC5C[C@H](O)CC[C@]5(C)[C@H]4CC[C@]23C)C1 (stereo partly drawn)")
3.86
>>> test_value("CC(CCC(=O)N1CCC[C@@H]1C(=O)O)C1CC[C@H]2[C@@H]3[C@@H](O)CC4C[C@H](O)CC[C@]4(C)[C@H]3CC[C@]12C (stereo partly drawn)")
5.83

Now for the compound whose logP we want.
Incoming: Which logP is listed for CC(CCC(=O)NCC(=O)O)C1CC[C@H]2[C@@H]3[C@H](O)CC4C[C@H](O)CCC4(C)[C@H]3CCC12C (stereo partly drawn) ?
Outgoing: 3.53

* * *

# System: Rattus norvegicus
# Assay name: Secretion of Bile in Bile Fistula rats after the iv administration of compound, expressed as the residual secretion rate i
# Assay type: ADME, organism-based
# Condition context: in vivo
Recorded endpoint: Rs (mL/h/kg)
Field: numeric (mL/h/kg). Do not append units.

Consider the reported Rs for these molecules:
>>> test_value("CC(CCC(=O)N1CCC[C@@H]1C(=O)O)C1CC[C@H]2[C@@H]3[C@H](O)[C@H](O)C4C[C@H](O)CC[C@]4(C)[C@H]3CC[C@]12C (stereo partly specified)")
2.28
>>> test_value("CC(CCC(=O)N1CCC[C@@H]1C(=O)O)C1CC[C@H]2[C@@H]3[C@@H](O)CC4C[C@H](O)CC[C@]4(C)[C@H]3CC[C@]12C (stereo partly specified)")
3
>>> test_value("CC(CCC(=O)N1C[C@@H](O)C[C@@H]1C(=O)O)C1CC[C@H]2[C@@H]3[C@@H](O)CC4C[C@H](O)CC[C@]4(C)[C@H]3CC[C@]12C (stereo partly specified)")
2.76

Incoming: Which Rs is listed for CC(CCC(=O)N1CCC[C@@H]1C(=O)O)C1CC[C@H]2[C@@H]3C[C@H](O)C4C[C@H](O)CC[C@]4(C)[C@H]3CC[C@]12C (stereo partly specified) ?
Outgoing: 2.82

Incoming: Moving on to CO[C@H]1C[C@H](C(=O)O)N(C(=O)CCC(C)C2CC[C@H]3[C@@H]4[C@@H](O)CC5C[C@H](O)CC[C@]5(C)[C@H]4CC[C@]23C)C1 (stereo partly specified)
Outgoing: 2.64

Incoming: Moving on to CC(CCC(=O)N1CCC[C@H]1C(=O)O)C1CC[C@H]2[C@@H]3[C@@H](O)CC4C[C@H](O)CC[C@]4(C)[C@H]3CC[C@]12C (stereo partly specified)
Outgoing: 3.06

* * *

Consider the following compounds and their measured [ALP]max readings.
# Test system: Rattus norvegicus
# Assay name: Alkaline phosphatase in Bile Fistula rats after iv coinfusion of TCDCA and compound.
# Type: ADME, organism-based
# Condition context: in vivo
Field: numeric (IU/L). Do not append units.

Consider the reported [ALP]max for these compounds:
>>> test_value("CC(CCC(=O)N1C[C@@H](O)C[C@@H]1C(=O)O)C1CC[C@H]2[C@@H]3[C@@H](O)CC4C[C@H](O)CC[C@]4(C)[C@H]3CC[C@]12C (stereo partly drawn)")
31
>>> test_value("CC(CCC(=O)N1CCC[C@@H]1C(=O)O)C1CC[C@H]2[C@@H]3[C@@H](O)CC4C[C@H](O)CC[C@]4(C)[C@H]3CC[C@]12C (stereo partly drawn)")
32
>>> test_value("CC(CCC(=O)N1CCC[C@H]1C(=O)O)C1CC[C@H]2[C@@H]3[C@@H](O)CC4C[C@H](O)CC[C@]4(C)[C@H]3CC[C@]12C (stereo partly drawn)")
30
>>> test_value("C[C@H](CCC(=O)O)[C@H]1CC[C@H]2[C@@H]3[C@@H](O)C[C@@H]4C[C@H](O)CC[C@]4(C)[C@H]3CC[C@]12C [URSODIOL]")
217
>>> test_value("CC(CCC(=O)N1CCC[C@@H]1C(=O)O)C1CC[C@H]2[C@@H]3[C@H](O)[C@H](O)C4C[C@H](O)CC[C@]4(C)[C@H]3CC[C@]12C (stereo partly drawn)")
34
>>> test_value("CC(CCC(=O)NCC(=O)O)C1CC[C@H]2[C@@H]3[C@H](O)CC4C[C@H](O)CCC4(C)[C@H]3CCC12C (stereo partly drawn)")
150
>>> test_value("CC(CCC(=O)N1CCC[C@@H]1C(=O)O)C1CC[C@H]2[C@@H]3C[C@H](O)C4C[C@H](O)CC[C@]4(C)[C@H]3CC[C@]12C (stereo partly drawn)")
57

Now for the compound whose [ALP]max we want.
Incoming: Which [ALP]max is listed for CO[C@H]1C[C@H](C(=O)O)N(C(=O)CCC(C)C2CC[C@H]3[C@@H]4[C@@H](O)CC5C[C@H](O)CC[C@]5(C)[C@H]4CC[C@]23C)C1 (stereo partly drawn) ?
Outgoing: 30

* * *

# Tested on: Rattus norvegicus
# Assay name: Secretion of phospholipid in Bile Fistula rats after the iv administration of compound, expressed as the residual secretion rate
# Assay type: ADME, organism-based
# Condition context: in vivo
Recorded endpoint: Rs (µM/min/g)
Field: numeric (µM/min/g). Do not append units.

Incoming: Which Rs is listed for C[C@H](CCC(=O)O)[C@H]1CC[C@H]2[C@@H]3[C@@H](O)C[C@@H]4C[C@H](O)CC[C@]4(C)[C@H]3CC[C@]12C [URSODIOL] ?
Outgoing: 0.00012

* * *

# Assay name: Water solubility of the compound. was determined
# Assay type: ADME
# Condition context: read-out: S
Recorded endpoint: solubility (µM)
Field: numeric (µM). Do not append units.

Incoming: Which solubility is listed for `C[C@H](CCC(=O)O)[C@H]1CC[C@H]2[C@@H]3C[C@H](O)[C@@H]4C[C@H](O)CC[C@]4(C)[C@H]3CC[C@]12C` ?
Outgoing: 15
